# target_entity: Zea mays EPSPS variant WT-FS-E (102A 302S 391G 438R) (Zea mays, UniProt O24566, E301S/E390G/G101A/V437R)
# Sequence (O24566 entry or part of it G101A/E301S/E390G/V437R): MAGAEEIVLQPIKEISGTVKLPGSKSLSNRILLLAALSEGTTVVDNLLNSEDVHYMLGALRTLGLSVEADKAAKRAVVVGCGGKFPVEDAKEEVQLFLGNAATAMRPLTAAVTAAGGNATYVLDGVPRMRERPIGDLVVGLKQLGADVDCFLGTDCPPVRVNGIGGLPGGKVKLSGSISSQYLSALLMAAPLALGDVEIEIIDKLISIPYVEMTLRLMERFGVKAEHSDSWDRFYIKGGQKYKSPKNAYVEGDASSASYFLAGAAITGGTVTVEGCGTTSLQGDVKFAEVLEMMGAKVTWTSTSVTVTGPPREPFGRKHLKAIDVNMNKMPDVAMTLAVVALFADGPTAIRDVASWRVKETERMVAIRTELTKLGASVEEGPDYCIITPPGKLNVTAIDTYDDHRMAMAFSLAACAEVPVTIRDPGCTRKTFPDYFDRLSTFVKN
# method_description: EPSPS substrate saturation kinetics, WT-FS-E
measure: pKi
As a rule, pKi stands for the negative log10 of the concentration, concentration in M.

Note down pKi recorded for O=C(O)CNCP(=O)(O)O [glyphosate, N-phosphonomethylglycine]
2.94

====

# target_entity: Zea mays EPSPS variant Zm-H6 (868-H6) with V87T (H6-V87T) (Zea mays, UniProt O24566, A1R/A3W/A415G/A71Q/D401G/E301S/E390G/G101A/I207L/K83R/L97C/T278A/T360S/T440Q/V437R/V86T)
# Construct: 868-H6 plus V87T; E. coli BL21(DE3), Ni-NTA purified
# method_description: Substrate saturation kinetic analysis with glyphosate, H6-V87T
measure: Ki (µM)
Give the quantity in µM, number only.

State its Ki: O=C(O)CNCP(=O)(O)O [glyphosate, N-phosphonomethylglycine]
348

These data points were gathered from patent US11549123B2.
